Catalogue of HepG2 MIC50 readings, one per entry.
System: HepG2 cells
Measurement Notes: Mammalian cell toxicity (Cell Titer-Glo)
Assay type: cell-based
Test Parameters: Table 5, 48 h incubation

Recorded results for 2 compounds are shown here.
Nc1nc2sc(-c3noc(C(=O)NN4CCN(CC(O)(Cn5cncn5)c5ccc(F)cc5F)CC4)n3)cc2n(-c2ccc3c(c2)N(c2ccccc2)CCO3)c1=O (stereo not drawn) : >10 µM
Nc1nc2sc(C(=O)NC3CCN(C[C@](O)(Cn4cncn4)c4ccc(F)cc4F)CC3)cc2n(-c2ccc3c(c2)N(c2ccccc2)CCC3)c1=O : >50 µM

Task item: Which HepG2 MIC50 is reported for this compound? Nc1nc2sc(C(=O)NC3CCN(CC(O)(Cn4cncn4)c4ccc(F)cc4F)CC3)cc2n(-c2ccc3c(c2)N(c2ccccc2)CCO3)c1=O (stereo not drawn)
Reply: >10 µM

Task item: Any idea what HepG2 MIC50 was measured for Nc1nc2sc(C(=O)NC3CCN(C[C@](O)(Cn4cncn4)c4ccc(F)cc4F)CC3)cc2n(-c2ccc3ccn(-c4ccccc4)c3c2)c1=O ?
Reply: >50 µM

Task item: Give its HepG2 MIC50 value. Item: Nc1nc2sc(CN[C@H]3CCCN(C[C@](O)(Cn4cncn4)c4ccc(F)cc4F)C3)cc2n(-c2ccc3c(c2)N(c2ccccc2)CCO3)c1=O
Reply: >20 µM

Task item: Please give the measured HepG2 MIC50 for this compound: Cc1ccc(-n2c(=O)c(N)nc3sc(C(=O)NC4CCN(CC(O)(Cn5cncn5)c5ccc(F)cc5F)CC4)cc32)cc1Oc1ccccc1 (stereo not drawn)
Reply: >10 µM

* * *

Tested on: CaCl2
Measurement Notes: Antifungal sensitivity testing (broth microdilution MIC)
Type: cell-based
Test Parameters: Table 4; 96-well broth microdilution
Test Readout: MIC50 (µM)
Reply numerically in µM, unit not repeated.

Nc1nc2scc(C(=O)NC3CCN(CC(O)(Cn4cncn4)c4ccc(F)cc4F)CC3)c2n(-c2ccc3c(c2)N(c2ccccc2)CCO3)c1=O (stereo not drawn) : 20
Nc1nc2sc(-c3cn(C4CCN(CC(O)(Cn5cncn5)c5ccc(F)cc5F)CC4)nn3)cc2n(-c2ccc3c(c2)N(c2ccccc2)CCO3)c1=O (stereo not drawn) : 1
Nc1nc2sc(C(=O)N[C@@H]3CCN(C[C@@](O)(Cn4cncn4)c4ccc(F)cc4F)C3)cc2n(-c2ccc3c(c2)N(c2ccccc2)CCO3)c1=O : 2.5
Nc1nc2sc(C(=O)NC3CCN(CCCC(O)(Cn4cncn4)c4ccc(F)cc4F)CC3)cc2n(-c2ccc3c(c2)N(c2ccccc2)CCO3)c1=O (stereo not drawn) : 3.12
Nc1nc2sc(CN3CCN(CC(O)(Cn4cncn4)c4ccc(F)cc4F)CC3)cc2n(-c2ccc3c(c2)N(c2ccccc2)CCO3)c1=O (stereo not drawn) : 0.75
Nc1nc2sc(-c3noc(C(=O)NN4CCN(CC(O)(Cn5cncn5)c5ccc(F)cc5F)CC4)n3)cc2n(-c2ccc3c(c2)N(c2ccccc2)CCO3)c1=O (stereo not drawn) : 0.6

Task item: Tell me the measured MIC50 of Nc1nc2sc(C(=O)Nc3ccc(N4CCN(CC(O)(Cn5cncn5)c5ccc(F)cc5F)CC4)cc3)cc2n(-c2ccc3c(c2)N(c2ccccc2)CCO3)c1=O (stereo not drawn) , please.
Reply: 0.75

Task item: Bench note: what MIC50 did Nc1nc2sc(C(=O)NC3CCN(CC4COC(Cn5cncn5)(c5ccc(F)cc5F)C4)CC3)cc2n(-c2ccc3c(c2)N(c2ccccc2)CCO3)c1=O (stereo not drawn) show?
Reply: 2.5

Task item: Please give the measured MIC50 for this compound: Nc1nc2sc(CNC3CCN(CC(O)(Cn4cncn4)c4ccc(F)cc4F)C(=O)C3)cc2n(-c2ccc3c(c2)N(c2ccccc2)CCO3)c1=O (stereo not drawn)
Reply: 6.3

Task item: Sample CN(Cc1cc2c(nc(N)c(=O)n2-c2ccc3c(c2)N(c2ccccc2)CCO3)s1)C1CCN(CC(O)(Cn2cncn2)c2ccc(F)cc2F)CC1 (stereo not drawn) — what was its MIC50?
Reply: 6.5

Task item: If you can, please state the reported MIC50 value of CC1(NCc2cc3c(nc(N)c(=O)n3-c3ccc4c(c3)N(c3ccccc3)CCO4)s2)CCN(CC(O)(Cn2cncn2)c2ccc(F)cc2F)CC1 (stereo not drawn) .
Reply: 3
